The values you see were collected from the RNAGym collection of RNA variant scans (doi:10.7554/elife.80360).

Assignment: determine reported self-cleavage for the given variants.
B1: HDV Ribozyme (parent)
chain: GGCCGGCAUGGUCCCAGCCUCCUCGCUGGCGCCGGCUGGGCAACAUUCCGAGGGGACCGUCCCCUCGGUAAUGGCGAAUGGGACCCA

variants of: B1; test: self-cleavage, relative activity (ratio to wild type); higher = more cleavage; co-transcriptional

GGCCGGCAUGGUCCCAGCCUCCUCGCUGGCGCCGGCUGGGCAACAUUCCGAGGGGACCGUCCCCUCGGGAAUGGCGAAUGGGUCCCA [U69G A83U] :: 0.465
GGCCGCCAUGGUCCCUGCCUCCUCGCUGGCGCCGGCUGGGCAACAUUCCGAGGGGACCGUCCCCUCGGUAAUGGCGAAUGGGACCCA [G6C A16U] :: 0.199
GGCCGGCAUGGUCCCAGCCUCCUCGCUGGCGCCGGCUGGGCAACAUCCCGAGGGAACCGUCCCCUCGGUAAUGGCGAAUGGGACCCA [U47C G55A] :: 0.923
GGCCGGCAUGGUCCCAGCCUCCUCGCUGGCGCCGGCUGGGCAACAUUCCGAUGGGAUCGUCCCCUCGGUAAUGGCGAAUGGGACCCA [G52U C57U] :: 1.24
GGCCGGCAUGGUCCCAGCCUCCUCGCUGGCGCCGGCUGGGCAACAUUCCGAGGGGACCGUCCCCUCAGUAAUGGCGCAUGGGACCCA [G67A A77C] :: 0.325

Look at each variant and report its self-cleavage.
1. GGCCGGCAUGGUUCCAGCCUCCUCGCUGGCGCCGGCUGGGCAACAUUCCGAGGGGACCGUCACCUCGGUAAUGGCGAAUGGGACCCA [C13U C62A]
2. GGCUGGCAUGGUCCCAGCCUCCUCGUUGGCGCCGGCUGGGCAACAUUCCGAGGGGACCGUCCCCUCGGUAAUGGCGAAUGGGACCCA [C4U C26U]

1. 0.489
2. 0.764
